Here we list molecules with their recorded MIC when tested on Staphylococcus aureus USA 300.

{"smiles-data": "CC(C)C[C@H](NC(=O)[C@H](CC(C)C)NC(=O)[C@H](CCCCN)NC(=O)CNC(=O)[C@H](CC(C)C)NC(=O)[C@H](C)NC(=O)[C@H](CCCCN)NC(=O)[C@H](CC(C)C)NC(=O)[C@H](C)NC(=O)[C@H](CO)NC(=O)[C@H](CC(C)C)NC(=O)[C@H](CC(C)C)NC(=O)CN)C(N)=O", "unit-of-measurement": "µM", "measurement-qualifier": "=", "MIC": 1.56}
{"smiles-data": "CC(C)C[C@H](NC(=O)CN)C(=O)N[C@@H](CCCCN)C(=O)N[C@@H](CCCCN)C(=O)N[C@@H](CC(C)C)C(=O)N[C@@H](CC(C)C)C(=O)NCC(=O)N[C@@H](CCCCN)C(=O)N[C@@H](CC(C)C)C(=O)N[C@@H](CC(C)C)C(=O)N[C@@H](CCCCN)C(=O)N[C@@H](CCCCN)C(=O)N[C@@H](CC(C)C)C(=O)NCC(=O)N[C@@H](CCCCN)C(=O)N[C@@H](CC(C)C)C(=O)N[C@@H](CC(C)C)C(=O)N[C@@H](CC(C)C)C(=O)N[C@@H](CCCCN)C(=O)O", "unit-of-measurement": "µM", "measurement-qualifier": "≥", "MIC": 160}
{"smiles-data": "NC(=O)[C@H](CCCN=C(N)N)NC(=O)[C@H](Cc1c[nH]c2ccccc12)NC(=O)[C@H](Cc1c[nH]c2ccccc12)NC(=O)[C@H](CCCN=C(N)N)NC(=O)[C@H](Cc1c[nH]c2ccccc12)NC(=O)[C@H](Cc1c[nH]c2ccccc12)NC(=O)[C@H](CCCN=C(N)N)NC(=O)[C@@H](N)CCCN=C(N)N", "unit-of-measurement": "µM", "measurement-qualifier": "=", "MIC": 5.66}
